READOUT NAME: logP
I only need the number, thanks.

COMPOUND	READOUT NAME	ENDPOINT VALUE
CSC(C)=NOC(=O)N(C)SN(C)C(=O)N(C)C	logP	1.2
COc1cc(C)nc2ccccc12	logP	2.81
CN(C)CNC(=O)c1ccccc1	logP	0.63
CN(C)C(=O)CCC(=O)OCC(=O)C1(O)CCC2C3CCC4=CC(=O)CCC4(C)C3C(O)CC21C (centres undefined)	logP	2.03

Which value of logP has been reported for "CCOC(=O)C(=Cc1cccc(OC)c1OC)C(C)=O" in the records?
2.21

Then what about the compound "O=[N+]([O-])c1cnc(N=C2NCCN2)s1" ?
1.38

Then what about the compound "CCCCN(CCCC)CCS(=O)(=O)c1cc(OC)c(OC)c(OC)c1" ?
3.55

Then what about the compound "O=C(O)COc1cc(F)cc(I)c1" ?
2.42

Then what about the compound "O=C1CN=C(c2ccccc2Br)c2cc(Cl)ccc2N1" ?
3.17

Reference source: the OPERA property sets (Mansouri et al. 2018)
